Assay summary: In vivo PK test, drug concentration in plasma after oral or intravenous administration
Experimental parameters: CRljOri:CD1(ICR); mouse, 25 mg/kg oral administration, plasma
Metric: AUC(0-t) (ng·h/mL)
Quick reminder: number only, in ng·h/mL, skip the unit.

-- ask Which AUC(0-t) value belongs to CC(C)(C)c1ccc(-c2cc(/C=C3\SC(=O)NC3=O)ccn2)cc1 [Compound 11] ?
-- reply 39400

====

Assay summary: In vivo brain tissue distribution test after oral administration
Experimental parameters: Hsd:ICR(CD-1R), mouse, brain/plasma, po, 25 mg/kg, PO, read-out: Brain-to-plasma ratio by concentration (brain/plasma), Average
Metric: Kp
I only need the number, thanks.

-- ask Which Kp value belongs to CC(C)(C)c1ccc(-c2cc(/C=C3\SC(=O)NC3=O)ccn2)cc1 ?
-- reply 0.47

====

Assay summary: In vivo brain tissue distribution test after oral administration
Experimental parameters: Hsd:ICR(CD-1R); Plasma (25 mg/kg, PO), mouse
Metric: Tmax (h)
Quick reminder: number only, in h, skip the unit.

-- ask Which Tmax value belongs to CC(C)(C)c1ccc(-c2cc(/C=C3\SC(=O)NC3=O)ccn2)cc1 [Compound 11] ?
-- reply 1.33

====

Assay summary: In vivo PK test, drug concentration in plasma after oral or intravenous administration
Experimental parameters: CRljOri:CD1(ICR), mouse, plasma, po, 25 mg/kg, oral 25 mg/kg, 8 hr, read-out: Drug concentration in plasma, Individual
Metric: concentration at 8 h (ng/mL)
Quick reminder: number only, in ng/mL, skip the unit.

-- ask Which concentration at 8 h value belongs to CC(C)(C)c1ccc(-c2cc(/C=C3\SC(=O)NC3=O)ccn2)cc1 ?
-- reply 3930

====

Assay summary: In vivo brain tissue distribution test after oral administration
Experimental parameters: Hsd:ICR(CD-1R); Plasma (25 mg/kg, PO), mouse
Metric: Cmax (ng/mL)
Quick reminder: number only, in ng/mL, skip the unit.

-- ask Which Cmax value belongs to CC(C)(C)c1ccc(-c2cc(/C=C3\SC(=O)NC3=O)ccn2)cc1 ?
-- reply 20400

====

Assay summary: In vivo PK test, drug concentration in plasma after oral or intravenous administration
Experimental parameters: CRljOri:CD1(ICR), mouse, plasma, po, 25 mg/kg, oral 25 mg/kg, 2 hr
Metric: concentration at 2 h (ng/mL)
Quick reminder: number only, in ng/mL, skip the unit.

-- ask Which concentration at 2 h value belongs to CC(C)(C)c1ccc(-c2cc(/C=C3\SC(=O)NC3=O)ccn2)cc1 [Compound 11] ?
-- reply 3870

====

Assay summary: In vivo PK test, drug concentration in plasma after oral or intravenous administration
Experimental parameters: CRljOri:CD1(ICR), plasma; mouse, 25 mg/kg oral compared with 5 mg/kg intravenous; read-out: bioavailability (BA)
Protocol: • Experimental Drug: Compound 11 • Excipient: 10% DMSO, 75% PEG400, 15% saline 1.2. Experimental system • mouse, CRljOri:CD1(ICR), SPF 6 weeks old (7 weeks old at the time of administration) 1.3. […] 580 μl of acetonitrile (including internal standard) was added to 20 μl of plasma/tissue, and centrifugation was performed at 4° C. at 15,000 rpm for 5 minutes with vortexing. A supernatant obtained after the centrifugation was analyzed with LC-MS/MS. […]
Metric: bioavailability

-- ask Which bioavailability value belongs to CC(C)(C)c1ccc(-c2cc(/C=C3\SC(=O)NC3=O)ccn2)cc1 [Compound 11] ?
-- reply 62.4%

====

Assay summary: In vivo brain tissue distribution test after oral administration
Experimental parameters: Hsd:ICR(CD-1R); Plasma (25 mg/kg, PO), mouse; read-out: AUCinf, Mean
Metric: AUC(0-inf) (µg·h/mL)
Quick reminder: number only, in µg·h/mL, skip the unit.

-- ask Which AUC(0-inf) value belongs to CC(C)(C)c1ccc(-c2cc(/C=C3\SC(=O)NC3=O)ccn2)cc1 ?
-- reply 180

====

Assay summary: In vivo PK test, drug concentration in plasma after oral or intravenous administration
Experimental parameters: CRljOri:CD1(ICR), mouse, plasma, po, 25 mg/kg, oral 25 mg/kg, 0.5 hr, read-out: Drug concentration in plasma, Average
Metric: concentration at 0.5 h (ng/mL)
Quick reminder: number only, in ng/mL, skip the unit.

-- ask Which concentration at 0.5 h value belongs to CC(C)(C)c1ccc(-c2cc(/C=C3\SC(=O)NC3=O)ccn2)cc1 ?
-- reply 4420

====

Assay summary: In vivo PK test, drug concentration in plasma after oral or intravenous administration
Experimental parameters: CRljOri:CD1(ICR), mouse, plasma, po, 25 mg/kg, oral 25 mg/kg, 1 hr, read-out: Drug concentration in plasma, Average
Experimental: • Experimental Drug: Compound 11 • Excipient: 10% DMSO, 75% PEG400, 15% saline 1.2. Experimental system • mouse, CRljOri:CD1(ICR), SPF 6 weeks old (7 weeks old at the time of administration) 1.3. […] 580 μl of acetonitrile (including internal standard) was added to 20 μl of plasma/tissue, and centrifugation was performed at 4° C. at 15,000 rpm for 5 minutes with vortexing. A supernatant obtained after the centrifugation was analyzed with LC-MS/MS. […]
Metric: concentration at 1 h
Answer with the figure and its unit, nothing else.

-- ask Which concentration at 1 h value belongs to CC(C)(C)c1ccc(-c2cc(/C=C3\SC(=O)NC3=O)ccn2)cc1 ?
-- reply 3770 ng/mL

====

Assay summary: In vivo PK test, drug concentration in plasma after oral or intravenous administration
Experimental parameters: CRljOri:CD1(ICR), mouse, plasma, po, 25 mg/kg, oral 25 mg/kg, 24 hr, read-out: Drug concentration in plasma, Average
Metric: concentration at 24 h (ng/mL)
Quick reminder: number only, in ng/mL, skip the unit.

-- ask Which concentration at 24 h value belongs to CC(C)(C)c1ccc(-c2cc(/C=C3\SC(=O)NC3=O)ccn2)cc1 [Compound 11] ?
-- reply 3.6

====

Assay summary: In vivo PK test, drug concentration in plasma after oral or intravenous administration
Experimental parameters: CRljOri:CD1(ICR), mouse, plasma, iv, 5 mg/kg, intravenous 5 mg/kg, 4 hr, read-out: Drug concentration in plasma, Average
Metric: concentration at 4 h (ng/mL)
Quick reminder: number only, in ng/mL, skip the unit.

-- ask Which concentration at 4 h value belongs to CC(C)(C)c1ccc(-c2cc(/C=C3\SC(=O)NC3=O)ccn2)cc1 ?
-- reply 1280

====

Assay summary: In vivo PK test, drug concentration in plasma after oral or intravenous administration
Experimental parameters: CRljOri:CD1(ICR); mouse, 25 mg/kg oral administration, plasma
Metric: Tmax (h)
Quick reminder: number only, in h, skip the unit.

-- ask Which Tmax value belongs to CC(C)(C)c1ccc(-c2cc(/C=C3\SC(=O)NC3=O)ccn2)cc1 ?
-- reply 1.6

====

Assay summary: In vivo PK test, drug concentration in plasma after oral or intravenous administration
Experimental parameters: CRljOri:CD1(ICR), mouse, plasma, iv, 5 mg/kg, intravenous 5 mg/kg, 0.08 hr, read-out: Drug concentration in plasma, Individual
Metric: concentration at 0.08 h (ng/mL)
Quick reminder: number only, in ng/mL, skip the unit.

-- ask Which concentration at 0.08 h value belongs to CC(C)(C)c1ccc(-c2cc(/C=C3\SC(=O)NC3=O)ccn2)cc1 ?
-- reply 2820

====

Assay summary: In vivo PK test, drug concentration in plasma after oral or intravenous administration
Experimental parameters: CRljOri:CD1(ICR), mouse, plasma, iv, 5 mg/kg, intravenous 5 mg/kg, 0.25 hr, read-out: Drug concentration in plasma, Individual
Description: • Experimental Drug: Compound 11 • Excipient: 10% DMSO, 75% PEG400, 15% saline 1.2. Experimental system • mouse, CRljOri:CD1(ICR), SPF 6 weeks old (7 weeks old at the time of administration) 1.3. […] 580 μl of acetonitrile (including internal standard) was added to 20 μl of plasma/tissue, and centrifugation was performed at 4° C. at 15,000 rpm for 5 minutes with vortexing. A supernatant obtained after the centrifugation was analyzed with LC-MS/MS. […]
Metric: concentration at 0.25 h (ng/mL)
Quick reminder: number only, in ng/mL, skip the unit.

-- ask Which concentration at 0.25 h value belongs to CC(C)(C)c1ccc(-c2cc(/C=C3\SC(=O)NC3=O)ccn2)cc1 [Compound 11] ?
-- reply 2600

====

Assay summary: In vivo brain tissue distribution test after oral administration
Experimental parameters: Hsd:ICR(CD-1R); Brain (25 mg/kg, PO), mouse
Metric: Cmax (ng/mL)
Quick reminder: number only, in ng/mL, skip the unit.

-- ask Which Cmax value belongs to CC(C)(C)c1ccc(-c2cc(/C=C3\SC(=O)NC3=O)ccn2)cc1 ?
-- reply 12600

====

Assay summary: In vivo PK test, drug concentration in plasma after oral or intravenous administration
Experimental parameters: CRljOri:CD1(ICR), mouse, plasma, iv, 5 mg/kg, intravenous 5 mg/kg, 24 hr, read-out: Drug concentration in plasma, Average
Metric: concentration at 24 h (ng/mL)
Quick reminder: number only, in ng/mL, skip the unit.

-- ask Which concentration at 24 h value belongs to CC(C)(C)c1ccc(-c2cc(/C=C3\SC(=O)NC3=O)ccn2)cc1 ?
-- reply 1.8
